assay: in vitro; details: human, skin fibroblasts, ID50 (concentration of drug required to kill 50% of the cells), drug alone
observable: CC50 at 16 h

1) CC(C)NCC(O)COc1cccc2ccccc12 (stereo not shown) ... 280 µM

---

tested on: human skin fibroblasts; test: in vitro
We begin with a simple list: items and their reported Factor of Protection, Chloroquine (ID50 with agent / ID50 alone).
observable: Factor of Protection, Chloroquine (ID50 with agent / ID50 alone)

1. NCCO ... 6.4
2. CC(C)NCC(O)COc1cccc2ccccc12 (centres unmarked) ... 1.8
3. C1COCCOCCOCCOCCO1 ... 1
4. OCCNCCO ... 1.5
5. NC(CO)(CO)CO ... 1.2

---

Test: in vitro
Conditions: human, skin fibroblasts, ID50 (M), Drug Alone, Table A; 16 h
Description: The following examples are offered to illustrate the practice of the present invention. […] To estimate the toxicity of the tested compounds, the general procedure of the MTT assay (Swisher et al., Models Dermatol., Maibach and Lowe (eds.), Basel, Karger, vol. 4, pp 131-137, 1989) was used. […] Absorbance of this solution was measured at 540 nm against a reference wavelength of 660 nm. Results were then expressed as percent of control cultures incubated in the same conditions without drug or agent. […]
observable: CC50 at 16 h (M)

1. CN(C)CCCN1c2ccccc2Sc2ccc(Cl)cc21 [Chlorpromazine] ... 1e-05

---

experiment: in vitro; conditions: human, skin fibroblasts, ID50 (concentration of drug required to kill 50% of the cells), drug with monensin
observable: CC50 at 16 h

1. CC(C)NCC(O)COc1cccc2ccccc12 (stereo not shown) ... 380 µM

---

We begin with a simple list: items and their reported CC50 at 16 h.
assay: in vitro; details: human, skin fibroblasts, ID50 (M), Drug Alone
observable: CC50 at 16 h

1. CCN(CC)CCCC(C)Nc1ccnc2cc(Cl)ccc12 (stereo not drawn) [Chloroquine, chloroquine] ... 7e-05 M
2. CCN(CC)CCCC(C)Nc1c2ccc(Cl)cc2nc2ccc(OC)cc12 (stereo not drawn) [Quinacrine] ... 1.3e-05 M
3. CN(C)CCCN1c2ccccc2CCc2ccccc21 [Imipramine] ... 0.00019 M

---

We begin with a simple list: items and their reported CC50 at 16 h.
Assay: in vitro
Settings: human, skin fibroblasts, ID50 (M), Drug + Monensin
Method: The following examples are offered to illustrate the practice of the present invention. […] To estimate the toxicity of the tested compounds, the general procedure of the MTT assay (Swisher et al., Models Dermatol., Maibach and Lowe (eds.), Basel, Karger, vol. 4, pp 131-137, 1989) was used. […] Absorbance of this solution was measured at 540 nm against a reference wavelength of 660 nm. Results were then expressed as percent of control cultures incubated in the same conditions without drug or agent. […]
observable: CC50 at 16 h (M)

1) CCN(CC)CCCC(C)Nc1ccnc2cc(Cl)ccc12 (stereo not drawn) [Chloroquine, chloroquine] ... 0.0007
2) CCN(CC)CCCC(C)Nc1c2ccc(Cl)cc2nc2ccc(OC)cc12 (stereo not drawn) [Quinacrine] ... 4.2e-05
3) CN(C)CCCN1c2ccccc2CCc2ccccc21 [Imipramine] ... 0.00027

---

Test system: human skin fibroblasts
Assay: in vitro
Experimental: The following examples are offered to illustrate the practice of the present invention. […] To estimate the toxicity of the tested compounds, the general procedure of the MTT assay (Swisher et al., Models Dermatol., Maibach and Lowe (eds.), Basel, Karger, vol. 4, pp 131-137, 1989) was used. […] Absorbance of this solution was measured at 540 nm against a reference wavelength of 660 nm. Results were then expressed as percent of control cultures incubated in the same conditions without drug or agent. […]
We begin with a simple list: items and their reported Factor of Protection (ID50 with monensin / ID50 alone).
observable: Factor of Protection (ID50 with monensin / ID50 alone)

1) CN(C)CCCN1c2ccccc2CCc2ccccc21 ... 1.4
2) CCN(CC)CCCC(C)Nc1c2ccc(Cl)cc2nc2ccc(OC)cc12 (centres unmarked) ... 3.2
3) CN1CCC[C@@H]1CCO[C@](C)(c1ccccc1)c1ccc(Cl)cc1 ... 1.2
4) CCN(CC)CCCC(C)Nc1ccnc2cc(Cl)ccc12 (centres unmarked) ... 10.0
5) CN(C)CCCN1c2ccccc2Sc2ccc(Cl)cc21 ... 1.6
